Measured values drawn from ChEMBL document CHEMBL4513216 for this set.

Test: Toxicity liver stage against HepG2, at 10uM
Type: cell-based
Parameters: test concentration 10 uM, cell line HepG2-A16-CD81EGFP
Details: human, HepG2-A16-CD81EGFP cells; read-out: INHIBITION
Some compounds, each annotated with its measured cytotoxicity at 10 µM.
Give the value, in units of %, as a plain number.

QUERY: Look at this compound and give its reported cytotoxicity at 10 µM. Cc1cncc(C(=O)N2CCC3(CC2)NC(=O)CC3c2ccccc2)c1 (stereo not drawn)
RESULT: -78.1

QUERY: Cool, now Cc1ccn2cc(C(=O)N3CCCC3c3c(C)nn(C)c3C)nc2c1 (stereo not drawn)
RESULT: 3.2

QUERY: CC(=O)Nc1ccc(-n2ccc3nc(N4CCCC4)ncc3c2=O)cc1 , same question.
RESULT: 2.24

----------
Assay: Toxicity liver stage against HepG2, at 10uM
Assay type: cell-based
Design: test concentration 10 uM, cell line HepG2-A16-CD81EGFP
Settings: human, HepG2-A16-CD81EGFP cells; read-out: INHIBITION
value.kind: cytotoxicity at 10 µM (%)
The answer is to be given in %; state only the numeric part.

O=C1CCSCC(C(=O)N2CCC(O)CC2)N1 (stereo unspecified)
-4.2
CC(C)CC(NS(C)(=O)=O)C(=O)N(C)Cc1nnc2n1CCC2 (stereo unspecified)
-4.22
Cn1cc(CN2CC[C@H]3C[C@@H](c4nc(C5CC5)cs4)O[C@@H]3C2)cn1
8.84
O=C(CC1CCc2ccccc21)NCCSc1ccccn1 (stereo unspecified)
-0.214
CC(CNC(=O)Nc1cn[nH]c1)N1CCCC1 (stereo unspecified)
-7.32
CN(C)CCO[C@H]1CN(Cc2cccc(C#N)c2)[C@@H]2COC[C@H]12
-12.7
CCN(Cc1ccc2c(c1)OCO2)C(=O)c1ccc(=O)n(C)c1
15.9
CN1CCCCC1c1ncc2c(n1)CCN(Cc1ccccc1Cl)C2 (stereo unspecified)
-1.67

QUERY: So what's the measured cytotoxicity at 10 µM for this one? CC(=O)Nc1ncc(S(=O)(=O)N2CCOCC2)s1
RESULT: 4.81

QUERY: How about this compound: O=C(CN1CCC(c2nnc(C(F)(F)F)o2)CC1)Nc1cccnc1
RESULT: -2.46

QUERY: Another compound to look at: Cn1ccnc1CN1CCC2(COCCN(Cc3ccsc3)C2)C1 (stereo unspecified)
RESULT: -9.81

----------
Some molecules, each annotated with its measured cytotoxicity at 10 µM.
Test: Toxicity liver stage against HepG2, at 10uM
Format: cell-based
Parameters: test concentration 10 uM, cell line HepG2-A16-CD81EGFP
Details: human, HepG2-A16-CD81EGFP cells; read-out: INHIBITION
All answers are understood in %, so give the number only.

CN(Cc1ccncc1)C1COC2(CCN(Cc3ccco3)CC2)C1 (stereo not drawn)
-77.9
CCC(C)N1Cc2c(C(=O)N3CCOCC3)nn(C)c2C1 (stereo not drawn)
-95.9
c1cc(CN2CCCC2c2noc(C3CC3)n2)on1 (stereo not drawn)
-0.628
Cn1nc(CNC(=O)CC#N)c2c1CN(CC1CC1)CC2
7.4
CN(C)C(=O)CN1C[C@H]2CC[C@@H](C1)N(Cc1ccc(Cl)cc1Cl)C2
-10.2

QUERY: Quick one: cytotoxicity at 10 µM for Cc1ccc(CN2CCC(c3cnccn3)CC2)s1 ?
RESULT: -0.64

QUERY: Thanks! And COCC(O)CN(C)C(=O)NC1CCN(S(C)(=O)=O)CC1 (stereo not drawn) ?
RESULT: -0.778

QUERY: Now the molecule CCc1noc(C)c1C(=O)N(C)Cc1ncc(C)c(OC)c1C
RESULT: -1.06

QUERY: Same question for COCCN(CCC#N)Cn1cc(Cl)cn1 please.
RESULT: 4.68

QUERY: And the next one, Cc1ccccc1OC1(C(=O)O)CCN(C(=O)CCc2ccco2)CC1 ?
RESULT: 1.5

QUERY: Could you do the same for Cc1nc2ccnn2c(C)c1CCC(=O)N1CCSCC1 , please?
RESULT: -4.24

----------
Listing of recorded cytotoxicity at 10 µM by entry.
Experiment: Toxicity liver stage against HepG2, at 10uM
Type: cell-based
Parameters: test concentration 10 uM, cell line HepG2-A16-CD81EGFP
Details: human, HepG2-A16-CD81EGFP cells; read-out: INHIBITION
Reply numerically in %, unit not repeated.

Use these answered entries as a reference point.
Cn1cccc1C(=O)N1CCCn2nc(CCC(=O)NC3CC3)cc2C1
5.45
O=C(c1cnc(-c2ccccc2)s1)N1CCOC2(CCCC2)C1
-1.52
Cc1nc(N2CCN(C(=O)c3cccnc3)CC2)cc(-n2cccc2)n1
-5.19
Cc1ccccc1-c1noc(CN2CCc3cncnc3C2)n1
-11.5
Cc1noc(C)c1S(=O)(=O)N(C)Cc1nn(C)c(Cl)c1Cl
-6.01

QUERY: For COc1ccc(CN(Cc2ccsc2)CC2CCCO2)cn1 (stereo not drawn) , what is its reported cytotoxicity at 10 µM?
RESULT: -6.16

QUERY: What do you get for Cn1cc(CN2CCc3nc4ccccc4c(=O)n3CC2)cn1 ?
RESULT: -1.57

QUERY: Also need O=C(N[C@@H]1CCN(C(=O)c2cc[nH]c2)C[C@H]1O)c1ccccn1 , thanks.
RESULT: 5.89

QUERY: Similarly, c1csc(-c2noc(CN3CCc4c(ncn4C4CC4)C3)n2)c1 ?
RESULT: 5.93

QUERY: Also O=C1CCSCC(C(=O)N2CCC3(CC2)OCCO3)N1 (stereo not drawn) ?
RESULT: 0.595

QUERY: Now consider Cc1nn(C)c(Oc2ccc(Cl)cc2)c1CN1CCOC(CN)C1 (stereo not drawn) .
RESULT: 8.85

----------
Listed next: entries and their corresponding cytotoxicity at 10 µM.
Test: Toxicity liver stage against HepG2, at 10uM
Type: cell-based
Set-up: test concentration 10 uM, cell line HepG2-A16-CD81EGFP
Conditions: human, HepG2-A16-CD81EGFP cells; read-out: INHIBITION
Supply the numeric figure in %, leaving out any unit text.

Cc1nccc(N2CCCC(c3nnc(Cn4ccnc4C)n3C)C2)n1 (configuration not stated)
-2.04
CN(Cc1cnn(C)c1)C(=O)NC1CCN(Cc2ccccn2)CC1
-2.35
CCCNC(=O)[C@@H]1CCCN1[C@@H](C(=O)NC)C1CC1
1.32

QUERY: Consider the molecule COc1cc(CNc2cnn(CC(F)F)c2)ccc1O and give its measured cytotoxicity at 10 µM.
RESULT: 0.553

QUERY: Entry O=C(Cc1nc(-c2ccncc2)n[nH]1)NCCCN1CCOCC1 please
RESULT: -1.8

QUERY: Also, CC(C)c1cc(NCC(C)N2CCCC2)n2nccc2n1 (configuration not stated) please.
RESULT: -12.4

QUERY: Could you do the same for COCC(NC(=O)NCc1sc(C)nc1C)c1ccco1 (configuration not stated) , please?
RESULT: 6.75

QUERY: How about this molecule: CCN1CCN(c2ccc(CNC(=O)c3cnn(C)c3C)cn2)CC1
RESULT: -11.1

QUERY: Also Cc1cc(C(=O)NCC2(C(N)=O)CCOCC2)nn1C(C)(C)C ?
RESULT: -16.6

QUERY: # repeat for COc1ccc(C(=O)N2CCCC2c2ccco2)cc1OC (configuration not stated)
RESULT: 1.03

QUERY: Proceed to CCn1c(C)nnc1CN(C)C1CCN(Cc2ccccn2)C1 (configuration not stated)
RESULT: 1.8

QUERY: Next: Cc1cc(=O)[nH]cc1C(=O)N1Cc2ccccc2N(C)CC1C (configuration not stated)
RESULT: 0.305

----------
# reported cytotoxicity at 10 µM; entries follow
Experiment: Toxicity liver stage against HepG2, at 10uM
Format: cell-based
Set-up: test concentration 10 uM, cell line HepG2-A16-CD81EGFP
Conditions: human, HepG2-A16-CD81EGFP cells; read-out: INHIBITION
Give your result in % as a bare value.

Example entries and their recorded answers appear below.
CC(C)N(C)[C@@H]1CCN(Cc2ccoc2)[C@H]1Cc1ccccc1
-2.57
COCCN1C(=O)CC[C@@H]2[C@H]1CCN2C(=O)N(C)C
10.7
CC(C#N)CNS(=O)(=O)c1ccc(Br)c(F)c1 (stereo unspecified)
-12.3
COc1cccc(S(=O)(=O)NC(=O)CC2CCCO2)c1 (stereo unspecified)
7.53
CCSCC(C)NCc1ccccc1-n1ccnc1 (stereo unspecified)
11.7

QUERY: Could you share which cytotoxicity at 10 µM value was measured for CCCN1C[C@@H]2CC[C@H]1CN(Cc1ccc(-n3cccn3)cc1)C2 ?
RESULT: 5.05

----------
Assay: Toxicity liver stage against HepG2, at 10uM
Type: cell-based
Set-up: test concentration 10 uM, cell line HepG2-A16-CD81EGFP
Settings: human, HepG2-A16-CD81EGFP cells; read-out: INHIBITION
Reported values of cytotoxicity at 10 µM for individual entries
The reply should be a number in %, with the unit left off.

Sample answers from the record:
CN(CCN1CCCCCC1)c1nccc(N2CCC(O)C2)n1 (stereo not given)
5.27
CCc1nc2ccccc2n1C(CC)C(=O)N(C)CCc1noc(C)n1 (stereo not given)
3.02

QUERY: State the recorded cytotoxicity at 10 µM for this entry: CC(C)Cc1noc(CN2CCOC(Cn3cncn3)C2)n1 (stereo not given)
RESULT: -2.58

QUERY: Now the compound O=c1[nH]c2ccccc2c2c1CCO2
RESULT: 6.9

QUERY: Okay, and O=S(=O)(c1ccccc1Cl)N1CCc2nc(C3CCNCC3)ncc2C1 ?
RESULT: 14.2

QUERY: Please answer likewise for COc1ccc(S(=O)(=O)Nc2cccnc2-n2cncn2)cc1C
RESULT: -6.87

QUERY: Next: CCOc1ccccc1-n1c(C2CC2)n[nH]c1=O
RESULT: 1.12
